test: protein stability index of a GFP-peptide fusion (yeast GPS) (PSI 1-4); higher = more stable; sorted into four equal gates, so the index is relative within each strain
measurementContext: doa10∆
Would you mind labelling by protein stability index? At or over 2 is true, under is false.

Exam item: protein stability index >= 2 for SYRNAFTNVLTKYSDVL [YJL039C/NUP192] ?
Marked response: true

Exam item: Does the reported protein stability index for KWKPVLSHIVYFLVLSP [RPN5] fall at or above the 2 mark?
Marked response: false

Exam item: In plain terms: is recorded protein stability index at least 2 for LDQVGVPKSIAKTLTYP [RPO21] ?
Marked response: true

Exam item: # check: protein stability index of LSERKAEKAEIRKRRAS [RPS6A] is greater than or equal to 2
Marked response: true

Exam item: # bool: protein stability index of QSNYGIYSSDAQGDPNL [NUT1] >= 2
Marked response: true

Exam item: Tell me whether protein stability index is at least 2 here: FVQLCEMGYLIQISKLH [RPC82]
Marked response: false

Exam item: decide whether the reported protein stability index for VNGFLNLGYCNDKLIVD [RPN1] is at least 2.
Marked response: true

Exam item: Hello, I need to know if ADTKAPTFTFGSSALAD [YLR335W/NUP2] has measured protein stability index not below 2. Thanks!
Marked response: true

Exam item: Would you say NPASATDNMSGRGLWNP [YJL039C/NUP192] shows protein stability index at minimum 2?
Marked response: true

Exam item: Quick check, protein stability index >= 2? CKRELAFVKQKNDSLEK [YIL149C/MLP2]
Marked response: true

Exam item: Decide: protein stability index of MVSTPELKKYMDKKILL [SMX2] >= 2?
Marked response: true

Exam item: Could you tell me if the measured protein stability index of RSLEKVNNSVSKTGSVD [SSN2] reaches 2 or more?
Marked response: true

Exam item: Tell me whether protein stability index is at least 2 here: SQEREFSLLVKAEIPPE [SIN4]
Marked response: true

Exam item: Check if protein stability index >= 2 (inclusive). Item: IFNSNKAKIIPGNGKHA [SIR4]
Marked response: true

Exam item: Is it the case that TLLVIRRLHKVLRPFLL [SNF2] has protein stability index reaching or exceeding 2?
Marked response: false

Exam item: Check if protein stability index >= 2 (inclusive). Item: RDKVCKQINEARDEILP [PGD1]
Marked response: false

Exam item: Decide: protein stability index of AHVNKVTEETTKQIQSV [SIR4] >= 2?
Marked response: true

* * *

For each record, write down the corresponding protein stability index.
test: protein stability index of a GFP-peptide fusion (yeast GPS) (PSI 1-4); higher = more stable; sorted into four equal gates, so the index is relative within each strain
measurementContext: san1∆
Would you mind answering with just the numeric figure?

Documented protein stability index of KVFIRESLSLKNIHISK [YML103C/NUP188] : 2.01

// field: protein stability index; key: NGKTRTLENTLKAAFVA [RPS2] ; value = 3

Recorded protein stability index (sequence ERPPLLPILPIQRLRLL [YOR098C/NUP1] ): 1.95

Entry WRAIIKAIFPNTVDGDL [FAS1] , protein stability index reported as 2.6

Documented protein stability index of QVGERIKQTFKNDLFVI [RPO21] : 2.56

protein stability index measured on KPFRQTKFKVRGSSSLY [RPL38] = 3.17

Sample IREINYTMSNHGMSVDP [RPO31] ; protein stability index observed: 3.03

The recorded protein stability index for LIKMSRSPPRPPSLKII [PRP28] is 2.3

Notebook: TYPAGFMDVITLDATNE [RPS4A] , protein stability index read as 3.11

So, FSFGGTQTGQNTGPSTG [YGL172W/NUP49] ? Its protein stability index was 3.18

Input SSLEELLLKDQQTAKKL [ECM29] . Output protein stability index: 2.92

Note to self: protein stability index recorded for NNNEDNENNNNSSEKNN [MED2] was 3.2

The value of protein stability index measured for the sequence FDDIFQVSEVDPGRYNK [RPB8] turned out to be 2.57

Entry SDRREHDEKLSDELHNQ [LIN1] — recorded protein stability index = 3.19

Measured protein stability index of NHITEFPSIPLPINGPI [RPC31] : 2.08

Reported protein stability index for DMDGVDFNQAFEGTDDN [BRN1] was 3.35

Record summary for LDRIPMHSYFIFKDLVT [COB] : reported protein stability index = 1.88

Value of measured protein stability index for the entry TNLKMKRKWSYVLYAKI [RRP43] : 1.75

Please fill in: protein stability index reported for EFNFTNLQAKPLVGKPK [YAR002W/NUP60] = 2.27

# sequence PQYINYSSIPSLQDSII [SSN2] ; its protein stability index = 2.9

protein stability index reported for this sequence AQFIVISLRNNMFELAQ [SMC4] : 1.51

Consider LVSVTSTLQHFQETLDS [MED8] . Its measured protein stability index is 2.43

Measured protein stability index of IKDEIDDPFTKINTRGA [SWI1] : 1.53

Reported protein stability index for QDENIGLSMLAKLKELA [RPC31] was 3.05

Input AQLTHSLRRIRDEMSKA [MED8] . Output protein stability index: 2.02

Reported protein stability index for AVCSTATVVSTNHSAAA [PGD1] was 2.59

Noted for PLAKIYLEENKSDSQYR [MED1] : its protein stability index reads 3.15

# sequence AQDFINAYASFLQRQGK [RPS19A] ; its protein stability index = 3.01

The sequence identified as QPSKVSSNVQQPQQQLG [RTT102] registered its protein stability index at 2.61

Value of protein stability index reported for the sequence KTMKTFVIHIQEKNFQT [RPB5] is 1.88

The reported value for DPNLSFESSSSLPFLLR [SSN2] in terms of protein stability index is 2.94

Record summary for NITKNLKTFNGSLALLK [POP4] : reported protein stability index = 2.93

# sequence TVHSKSRTRAHAQSKRE [RPL19A] ; its protein stability index = 2.96

protein stability index in this record for VEWNDQVEKLGKKMEAR [RPN9] : 3.29

Value of measured protein stability index for the entry IKKKKKKSKNGTISKTG [SRP14] : 3.11

The reported value for LSRKPSDNKKRSGSNAA [RPC82] in terms of protein stability index is 3.03

protein stability index measured on EVRDATLNNIFRFDSIQ [GRR1] = 3.38

For reference, reported protein stability index for LKFNHGNYSHLMEKNRI [REC8] stands at 2.28

Looking up GKPVSLPLLYNFNPDNG [FAS1] , I found its protein stability index recorded as 2.62

Input STATRNVTMIDDLIHFT [COR1] . Output protein stability index: 2.82

// protein stability index value for QLDSDANKLSKSHSTVS [ISW2] : 3

In plain terms, VFVKKHHELIKVKHDSQ [SSN2] has a documented protein stability index of 1.18

Field protein stability index (entry NVIDTQRKNGVTNSPLF [ECM29] ) reads 3.09

Lookup result for LSDYEVLKFLTDLEKKH [RPC17] ; measured protein stability index: 3.08

Every entry's value here was drawn from the supplement of paper PMC9732359.
